The origin of these recorded values is BindingDB's records for doi:10.1021/acs.jmedchem.5b00162.

TESTED_SYSTEM: UniProt P49684
Sequence (P49684 whole entry): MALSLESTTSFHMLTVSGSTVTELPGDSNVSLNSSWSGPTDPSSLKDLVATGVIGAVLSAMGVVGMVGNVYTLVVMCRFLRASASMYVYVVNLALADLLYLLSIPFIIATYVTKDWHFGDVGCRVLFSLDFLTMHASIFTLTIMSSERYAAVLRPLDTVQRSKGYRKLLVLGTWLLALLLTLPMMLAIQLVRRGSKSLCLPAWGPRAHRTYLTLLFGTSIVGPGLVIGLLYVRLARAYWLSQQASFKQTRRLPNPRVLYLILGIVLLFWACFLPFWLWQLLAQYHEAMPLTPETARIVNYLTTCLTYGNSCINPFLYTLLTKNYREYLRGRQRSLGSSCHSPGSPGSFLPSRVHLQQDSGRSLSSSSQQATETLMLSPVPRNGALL
TEST_SUMMARY: Modulation of urotensin-2 receptor in Sprague-Dawley rat thoracic aortic ring assessed as human urotensin-2 pEC50 for induction of aortic ring contraction at 4 uM preincubated for 15 mins followed by human urotensin-2 addition (Rvb = 8.71 +/- 0.08 no unit)
VALUE_KIND: pEC50
Lab note: report pEC50 as minus log10 of the concentration in molar units, number only.

Summary line: "NCCCC[C@@H]1N[C@H](c2ccc(-c3ccccc3)cc2)c2[nH]c(C(=O)O)cc2N(CCc2ccc(O)cc2)C1=O" , UniProt P49684, reported pEC50 = 8.46

* * *

TEST_SUMMARY: Modulation of urotensin-2 receptor in Sprague-Dawley rat thoracic aortic ring assessed as urotensin-2 related peptide pEC50 for induction of aortic ring contraction at 8 uM preincubated for 15 mins followed by urotensin-2 related peptide addition (Rvb = 7.89 +/- 0.08 no unit)
VALUE_KIND: EC50 (nM)
// note: answer is a bare numeric in nM

"NCCCC[C@@H]1N=C(c2cccc3ccccc23)c2[nH]c(C(=O)O)cc2N(CCc2ccc(O)cc2)C1=O" yielded EC50 of 5.4
